Assay: NCI Yeast Anticancer Drug Screen. Data for the mlh1 rad18 strain (AID 175)
Conditions: S. cerevisiae mlh1 rad18 strain growth inhibition; at 50.0 µM (retest, dose inferred, filed as 5.0); stronger effect = higher value
Compounds without any hit were thinned out: in the full panel of roughly 79,000, 15% have a hit.
Decide using growth inhibition: a value greater than or equal to 80% is True, a smaller one is False.

Task: Tell me whether growth inhibition is at least 80% here: O=S(=O)(Nc1ccnn1-c1ccccc1)c1ccc(N=Cc2c3ccccc3nc3cc(Cl)ccc23)cc1
Result: False

Task: Tell me whether growth inhibition is at least 80% here: COc1cc(NS(C)(=O)=O)ccc1Nc1c2ccccc2nc2ccccc12
Result: False

Task: Tell me whether growth inhibition is at least 80% here: Cc1ccc(S(=O)(=O)N2CCN3C(=O)c4ccccc4C32c2ccc(F)cc2)cc1 (configuration not stated)
Result: True

Task: Tell me whether growth inhibition is at least 80% here: COC(=O)/C=C1/Nc2ccc(Cl)cc2C(=O)NC1=O
Result: False

Task: Tell me whether growth inhibition is at least 80% here: O=C(Nc1c(Cl)cccc1Cl)Oc1cccc2cccnc12
Result: True

Task: Tell me whether growth inhibition is at least 80% here: O=C1C(c2c[nH]c3ccc(Br)cc23)=Nc2ccc(Br)cc21
Result: False

Note: attention shifts to another entry.
Task: Tell me whether growth inhibition is at least 80% here: C/C(=N\NC(=S)NCc1ccccc1)c1nccnc1C
Result: True
